- RUN_PARAMETERS: PAMPA
Where a SMILES comes first, the peptide text is derived from it. [ ]: non-standard residue; d: D form. dNMeF = CN[C@H](Cc1ccccc1)C(=O)O; NMeL = CN[C@@H](CC(C)C)C(=O)O; dNMeV = CN[C@@H](C(=O)O)C(C)C
READOUT_KIND: PAMPA_R3

CC[C@H](C)[C@@H]1NC(=O)[C@@H](CC(C)C)NC(=O)[C@H]2CCCN2C(=O)[C@@H]2CCCN2C(=O)[C@H](C)NC(=O)[C@H]2CCCN2C(=O)[C@@H]2CCCN2C(=O)[C@H](C)NC(=O)[C@@H](C(C)C)N(C)C1=O [Design D9.37, DPRO DLEU ILE *DVAL ALA PRO DPRO ALA PRO] (cyclo(AP[dP]AP[dP][dL]I[dNMeV])); BQL
CC[C@@H](C)[C@H]1NC(=O)[C@H](CC(C)C)NC(=O)[C@H](CC(C)C)N(C)C(=O)[C@H]2CCCN2C(=O)[C@@H](CC(C)C)NC(=O)[C@@H]2CCCN2C(=O)[C@H](CC(C)C)N(C)C(=O)[C@@H](Cc2ccccc2)N(C)C(=O)[C@H](CC(C)C)N(C)C(=O)[C@H](CC(C)C)N(C)C1=O [Design D10.12] (cyclo(L[dI][NMeL][NMeL][dNMeF][NMeL]P[dL][dP][NMeL])); BQL
CC(C)C[C@H]1NC(=O)[C@H]2CCCN2C(=O)[C@@H]2CCCN2C(=O)[C@@H](Cc2ccccc2)NC(=O)[C@@H](C(C)C)NC(=O)[C@H](CC(C)C)N(C)C(=O)[C@@H](Cc2ccccc2)NC1=O (single isomer, unassigned) [Design D7.7.p1, PRO DPRO DLEU DPHE *LEU DVAL DPHE]; 9.31 ×10⁻⁶ cm/s

###

- RUN_PARAMETERS: PAMPA
Where a SMILES comes first, the peptide text is derived from it. [ ]: non-standard residue; d: D form. dNMeL = CN[C@H](CC(C)C)C(=O)O; dNMeA = CN[C@H](C)C(=O)O
READOUT_KIND: PAMPA_R3

CC(C)C[C@H]1NC(=O)[C@@H]2CCCN2C(=O)[C@@H]2CCCN2C(=O)[C@@H](C)NC(=O)[C@@H](Cc2ccccc2)NC(=O)[C@H]2CCCN2C1=O [Design D6.3, DPRO DPHE DALA PRO PRO DLEU] (cyclo(PP[dL][dP][dF][dA])); 0.703 ×10⁻⁶ cm/s
CC[C@@H](C)[C@H]1NC(=O)[C@@H]2CCCN2C(=O)[C@H]2CCCN2C(=O)[C@@H](CC(C)C)NC(=O)[C@@H](C)N(C)C(=O)[C@H]2CCCN2C(=O)[C@H]2CCCN2C(=O)[C@H](C(C)C)NC1=O [Design D8.24, DPRO PRO DILE VAL DPRO DPRO *DALA DLEU] (cyclo([dI]V[dP][dP][dNMeA][dL][dP]P)); BQL
CC[C@H](C)[C@@H]1NC(=O)[C@@H](CC(C)C)NC(=O)[C@H](CC(C)C)NC(=O)[C@H]2CCCN2C(=O)[C@@H]2CCCN2C(=O)[C@H]([C@@H](C)CC)NC(=O)[C@@H](CC(C)C)N(C)C(=O)[C@@H](CC(C)C)N(C)C1=O [Design D8.9, ILE *DLEU *DLEU ILE PRO DPRO LEU DLEU] (cyclo(IP[dP]L[dL]I[dNMeL][dNMeL])); BQL
